Data credit: the supplement of paper PMC10307832

# Tested on: LC-2-ad
# assayNotes: relative viability (nuclei count vs DMSO), 5 days (fraction); higher = more cells survive
# conditionsUsed: first compound 0.05 µM
Exercise: state measured relative viability for each of the molecules provided.
Numbers only.

Check out these entries, answers already filled in.
CC1(C)CCC(c2ccc(Cl)cc2)=C(CN2CCN(c3ccc(C(=O)NS(=O)(=O)c4ccc(N[C@H](CCN5CCOCC5)CSc5ccccc5)c(S(=O)(=O)C(F)(F)F)c4)cc3)CC2)C1 [Navitoclax] + COc1cc2c(Oc3ccc(NC(=O)C4(C(=O)Nc5ccc(F)cc5)CC4)cc3F)ccnc2cc1OCCCN1CCOCC1 [Foretinib] (partner 0.25 µM)
1.02
CC1(C)CCC(c2ccc(Cl)cc2)=C(CN2CCN(c3ccc(C(=O)NS(=O)(=O)c4ccc(N[C@H](CCN5CCOCC5)CSc5ccccc5)c(S(=O)(=O)C(F)(F)F)c4)cc3)CC2)C1 [Navitoclax] + NC(=O)Nc1cc(-c2cccc(F)c2)sc1C(=O)N[C@H]1CCCNC1 [AZD7762] (partner 0.2 µM)
0.796

Provide reported relative viability for each item, in the same order as listed.
1. CC1(C)CCC(c2ccc(Cl)cc2)=C(CN2CCN(c3ccc(C(=O)NS(=O)(=O)c4ccc(N[C@H](CCN5CCOCC5)CSc5ccccc5)c(S(=O)(=O)C(F)(F)F)c4)cc3)CC2)C1 [Navitoclax] + O=C(CCCCCCC(=O)Nc1ccccc1)NO [Vorinostat] (partner 1 µM)
2. CC1(C)CCC(c2ccc(Cl)cc2)=C(CN2CCN(c3ccc(C(=O)NS(=O)(=O)c4ccc(N[C@H](CCN5CCOCC5)CSc5ccccc5)c(S(=O)(=O)C(F)(F)F)c4)cc3)CC2)C1 [Navitoclax] + O=C(c1cc(Cc2n[nH]c(=O)c3ccccc23)ccc1F)N1CCN(C(=O)C2CC2)CC1 [Olaparib] (partner 8 µM)

# output
0.665
0.654

###

Exercise: for every item that follows, state its recorded relative viability.
# Test system: NCI-H1355
# assayNotes: relative viability (nuclei count vs DMSO), 5 days (fraction); higher = more cells survive
# conditionsUsed: first compound 8 µM
Answers are plain numbers.

Solved entries (count: 5):
C=C1C(=O)O[C@@H](CCCCCCCC)[C@@H]1C(=O)O [C-75] + CC1(C)CCC(c2ccc(Cl)cc2)=C(CN2CCN(c3ccc(C(=O)NS(=O)(=O)c4ccc(N[C@H](CCN5CCOCC5)CSc5ccccc5)c(S(=O)(=O)C(F)(F)F)c4)cc3)CC2)C1 [Navitoclax] (partner 0.5 µM)
0.956
C=C1C(=O)O[C@@H](CCCCCCCC)[C@@H]1C(=O)O [C-75] + CS(=O)(=O)N1CCN(Cc2cc3nc(-c4cccc5[nH]ncc45)nc(N4CCOCC4)c3s2)CC1 [Pictilisib] (partner 1 µM)
0.465
C=C1C(=O)O[C@@H](CCCCCCCC)[C@@H]1C(=O)O [C-75] + Cc1nc(NC(=O)N2CCC[C@H]2C(N)=O)sc1-c1ccnc(C(C)(C)C(F)(F)F)c1 [Alpelisib] (partner 2 µM)
0.886
C=C1C(=O)O[C@@H](CCCCCCCC)[C@@H]1C(=O)O [C-75] + CS(=O)(=O)CCNCc1ccc(-c2ccc3ncnc(Nc4ccc(OCc5cccc(F)c5)c(Cl)c4)c3c2)o1 [Lapatinib] (partner 2 µM)
1.01
C=C1C(=O)O[C@@H](CCCCCCCC)[C@@H]1C(=O)O [C-75] + CC(=O)Nc1cccc(-n2c(=O)n(C3CC3)c(=O)c3c(Nc4ccc(I)cc4F)n(C)c(=O)c(C)c32)c1 [Trametinib] (partner 0.02 µM)
0.448

Now for another entry.
# input relative viability of C=C1C(=O)O[C@@H](CCCCCCCC)[C@@H]1C(=O)O [C-75] + CCNC(=O)c1noc(-c2cc(C(C)C)c(O)cc2O)c1-c1ccc(CN2CCOCC2)cc1 [Luminespib] (partner 0.01 µM) on NCI-H1355?
# output 0.615
